Source listed as patent US20210145976A1.

Here, each record is paired with measured IC50, SK-BR3 viability, MMAF conjugate, with 0.6 uM holo-human transferrin data.
Target: CD71 on SK-BR-3 cells (human, UniProt P02786 1-760)
Sequence (P02786 whole entry): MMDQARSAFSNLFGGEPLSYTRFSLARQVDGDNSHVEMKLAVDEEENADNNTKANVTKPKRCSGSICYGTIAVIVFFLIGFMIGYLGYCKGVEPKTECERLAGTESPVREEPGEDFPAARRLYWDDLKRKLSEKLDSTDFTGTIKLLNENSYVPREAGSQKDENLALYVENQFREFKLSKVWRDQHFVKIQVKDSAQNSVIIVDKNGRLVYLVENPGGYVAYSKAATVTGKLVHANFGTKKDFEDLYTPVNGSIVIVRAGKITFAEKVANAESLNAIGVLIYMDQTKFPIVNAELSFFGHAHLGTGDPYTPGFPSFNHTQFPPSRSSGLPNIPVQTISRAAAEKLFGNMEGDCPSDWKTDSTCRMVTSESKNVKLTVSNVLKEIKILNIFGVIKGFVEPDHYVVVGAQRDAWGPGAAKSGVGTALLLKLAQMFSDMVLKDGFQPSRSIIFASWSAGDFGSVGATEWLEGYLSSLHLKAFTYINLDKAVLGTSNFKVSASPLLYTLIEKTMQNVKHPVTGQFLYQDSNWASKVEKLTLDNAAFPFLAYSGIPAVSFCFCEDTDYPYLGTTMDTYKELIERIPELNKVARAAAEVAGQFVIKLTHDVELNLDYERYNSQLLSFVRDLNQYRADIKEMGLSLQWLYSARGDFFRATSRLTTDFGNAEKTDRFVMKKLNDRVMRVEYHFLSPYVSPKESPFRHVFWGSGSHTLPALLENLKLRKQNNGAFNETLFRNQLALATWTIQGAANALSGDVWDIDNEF
Assay: cell-based or functional assay
OUTCOME MEASURE: IC50, SK-BR3 viability, MMAF conjugate, with 0.6 uM holo-human transferrin (nM)

| BINDER | REPORTED MEASUREMENT |
| --- | --- |
| SEQ ID NO 60 (designed binder, FN3 domain) MLPAPKNLVVSRVTEDSARLSWTAPDAAFDSFTIWYAEAIGHGEAIVLTVPGSERSYDLTGLKPGTEYWVDIWGVKGGQQSKPLSAIFTT | 14.4 |
| SEQ ID NO 39 (designed binder, FN3 domain) MLPAPKNLVVSRVTEDSARLSWTAPDAAFDSFDIDYREWWTLGEAIVLTVPGSERSYDLTGLKPGTEYYVNIQGVKGGLRSYPLSAIFTT | 31.1 |
